Where do the numbers come from? From patent US20240239894A1.

Biological target: T1, Murine B7-H4 ECD-Flag-His10 (monomeric) (mouse, UniProt Q7TSP5 25-257)
T1 construct: extracellular domain; also called FlagHis10 murine B7-H4
T1 sequence (looked up): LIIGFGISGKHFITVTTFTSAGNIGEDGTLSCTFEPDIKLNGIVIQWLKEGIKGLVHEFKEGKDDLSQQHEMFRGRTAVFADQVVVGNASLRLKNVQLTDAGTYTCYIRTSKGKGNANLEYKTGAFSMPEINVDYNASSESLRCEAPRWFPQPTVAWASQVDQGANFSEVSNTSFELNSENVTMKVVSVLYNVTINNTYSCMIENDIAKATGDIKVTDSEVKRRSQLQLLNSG
Experiment: Octet; summary table, repeats Table 9 (hIgG1-TM)
pKd: −log10 of the molar value.
READOUT TYPE: pKd

[[record]]
binder = "ZY0EO5-E07 human IgG1-TM (antibody, V domains shown, also called ZY0E05-E07; E05-E07) VH: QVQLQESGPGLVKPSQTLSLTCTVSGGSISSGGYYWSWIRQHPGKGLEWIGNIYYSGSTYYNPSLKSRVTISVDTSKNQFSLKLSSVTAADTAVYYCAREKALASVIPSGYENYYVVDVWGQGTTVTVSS VL: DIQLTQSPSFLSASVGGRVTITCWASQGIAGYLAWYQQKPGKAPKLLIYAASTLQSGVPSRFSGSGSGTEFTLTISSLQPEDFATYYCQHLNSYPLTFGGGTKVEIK"
experimental_result = 7.52

